Assay: Spectral properties of the fluorinated rhodamines (absorption, emission, quantum yield, lifetime)
Assay type: physicochemical
Details: aqueous buffer at pH 7
Here the recorded EMISSION λMAX is given for each entry.
// units = nm; emit number, no label

>  <compound>
CN(CCC(=O)O)C(=O)c1ccccc1-c1c2ccc(=NCC(F)(F)F)c(S(=O)(=O)O)c-2oc2c(S(=O)(=O)O)c(NCC(F)(F)F)ccc12 [Compound 16a]

>  <unit.label>
nm

>  <EMISSION λMAX>
530

$$$$
>  <compound>
Nc1cc2c(cc1F)C1(OC(=O)c3ccccc31)c1cc(F)c(N)cc1O2

>  <unit.label>
nm

>  <EMISSION λMAX>
520

$$$$
>  <compound>
O=C(O)c1ccc2c(c1)C1(OC2=O)c2ccc(NCC(F)(F)F)cc2Oc2cc(NCC(F)(F)F)ccc21 [15 (42-COOH)]

>  <unit.label>
nm

>  <EMISSION λMAX>
525

$$$$
>  <compound>
O=C1OC2(c3cc(F)c(NCC(F)(F)F)cc3Oc3cc(NCC(F)(F)F)c(F)cc32)c2ccccc21

>  <unit.label>
nm

>  <EMISSION λMAX>
521

$$$$
>  <compound>
CN(C)c1cc2c(cc1F)C1(OC(=O)c3ccccc31)c1cc(F)c(N(C)C)cc1O2

>  <unit.label>
nm

>  <EMISSION λMAX>
586

$$$$

Fill blank: measured EMISSION λMAX of the compound `Nc1c(F)cc2c(c1S(=O)(=O)O)Oc1c(cc(F)c(N)c1S(=O)(=O)O)C21OC(=O)c2ccccc21` is ____.
512

Return reported EMISSION λMAX; argument: `CNc1cc2c(cc1F)C1(OC(=O)c3ccccc31)c1cc(F)c(NC)cc1O2`
539

// EMISSION λMAX lookup, key: `O=C(O)c1ccccc1-c1c2ccc(=NCC(F)(F)F)c(S(=O)(=O)O)c-2oc2c(S(=O)(=O)O)c(NCC(F)(F)F)ccc12`
520

# lookup: EMISSION λMAX of CN(CCC(=O)O)C(=O)c1ccccc1-c1c2ccc(=NCC(F)(F)F)cc-2oc2cc(NCC(F)(F)F)ccc12.Cl [Compound 14a]
531

Look at this compound and give its reported EMISSION λMAX. O=C(O)c1ccc2c(c1)C1(OC2=O)c2ccc(NCC(F)(F)F)cc2Oc2cc(NCC(F)(F)F)ccc21 [15 (43-COOH)]
523

* * *

Assay: Spectral properties of the fluorinated rhodamines (absorption, emission, quantum yield, lifetime)
Format: physicochemical
Details: methanol
If the reported ABSORPTION ε equals or exceeds 60000 M⁻¹ cm⁻¹, assign Met. If not, assign Not met.

These recorded examples may help you get a feel for the data.
>  <molecule>
O=C(O)c1ccc2c(c1)C(=O)OC21c2ccc(NCC(F)(F)F)c(S(=O)(=O)O)c2Oc2c1ccc(NCC(F)(F)F)c2S(=O)(=O)O

>  <class>
Met

$$$$
>  <molecule>
Nc1cc2c(cc1F)C1(OC(=O)c3ccccc31)c1cc(F)c(N)cc1O2

>  <class>
Not met

$$$$
>  <molecule>
Nc1c(F)cc2c(c1S(=O)(=O)O)Oc1c(cc(F)c(N)c1S(=O)(=O)O)C21OC(=O)c2ccccc21

>  <class>
Not met

$$$$
>  <molecule>
CN(CCC(=O)O)C(=O)c1ccccc1-c1c2ccc(=NCC(F)(F)F)c(S(=O)(=O)O)c-2oc2c(S(=O)(=O)O)c(NCC(F)(F)F)ccc12 [Compound 16a]

>  <class>
Met

$$$$

Does the reported ABSORPTION ε for `COC(=O)CCN(C)C(=O)c1ccccc1-c1c2ccc(=NCC(F)(F)F)cc-2oc2cc(NCC(F)(F)F)ccc12` fall at or above the 60000 M⁻¹ cm⁻¹ mark?
Met

Item `O=C1OC2(c3cc(F)c(NCC(F)(F)F)cc3Oc3cc(NCC(F)(F)F)c(F)cc32)c2ccccc21` with ABSORPTION ε of 60000 M⁻¹ cm⁻¹ or above?
Not met

Check if ABSORPTION ε >= 60000 M⁻¹ cm⁻¹ (inclusive). Item: `CNc1cc2c(cc1F)C1(OC(=O)c3ccccc31)c1cc(F)c(NC)cc1O2`
Not met

For this molecule, is measured ABSORPTION ε 60000 M⁻¹ cm⁻¹ or higher? `O=C(O)c1ccccc1-c1c2ccc(=NCC(F)(F)F)c(S(=O)(=O)O)c-2oc2c(S(=O)(=O)O)c(NCC(F)(F)F)ccc12`
Met

meta.source: patent US8735444B2
